assayed-system: IKZF1 (Homo sapiens, UniProt Q13422+Q96SW2)
Construct: expressed in transfected cells
Sequence (Q13422 whole entry): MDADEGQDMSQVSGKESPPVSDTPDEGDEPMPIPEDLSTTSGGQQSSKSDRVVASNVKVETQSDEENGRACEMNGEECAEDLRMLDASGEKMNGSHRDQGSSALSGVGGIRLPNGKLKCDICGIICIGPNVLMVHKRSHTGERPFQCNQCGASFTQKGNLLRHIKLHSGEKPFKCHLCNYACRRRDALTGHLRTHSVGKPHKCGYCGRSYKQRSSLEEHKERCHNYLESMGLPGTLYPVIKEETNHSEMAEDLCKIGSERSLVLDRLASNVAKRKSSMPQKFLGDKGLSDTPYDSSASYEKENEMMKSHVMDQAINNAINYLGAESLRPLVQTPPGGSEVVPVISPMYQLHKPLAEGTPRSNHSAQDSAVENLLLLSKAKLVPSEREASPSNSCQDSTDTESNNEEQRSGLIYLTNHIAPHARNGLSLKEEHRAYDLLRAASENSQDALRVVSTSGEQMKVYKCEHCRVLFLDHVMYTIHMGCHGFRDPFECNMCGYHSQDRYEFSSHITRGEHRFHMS
Sequence (Q96SW2 whole entry): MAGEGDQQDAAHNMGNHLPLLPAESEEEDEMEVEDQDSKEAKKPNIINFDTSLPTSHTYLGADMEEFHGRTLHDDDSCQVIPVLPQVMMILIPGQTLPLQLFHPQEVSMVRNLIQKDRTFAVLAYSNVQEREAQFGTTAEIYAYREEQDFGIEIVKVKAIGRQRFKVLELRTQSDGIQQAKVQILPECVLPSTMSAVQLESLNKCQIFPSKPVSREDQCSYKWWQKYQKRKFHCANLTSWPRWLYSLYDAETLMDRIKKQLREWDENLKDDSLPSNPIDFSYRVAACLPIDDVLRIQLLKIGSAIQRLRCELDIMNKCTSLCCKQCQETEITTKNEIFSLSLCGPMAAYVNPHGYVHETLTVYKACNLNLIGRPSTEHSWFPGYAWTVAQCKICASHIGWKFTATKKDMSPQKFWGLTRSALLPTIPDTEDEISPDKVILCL
Sequence (Q16531 whole entry partner): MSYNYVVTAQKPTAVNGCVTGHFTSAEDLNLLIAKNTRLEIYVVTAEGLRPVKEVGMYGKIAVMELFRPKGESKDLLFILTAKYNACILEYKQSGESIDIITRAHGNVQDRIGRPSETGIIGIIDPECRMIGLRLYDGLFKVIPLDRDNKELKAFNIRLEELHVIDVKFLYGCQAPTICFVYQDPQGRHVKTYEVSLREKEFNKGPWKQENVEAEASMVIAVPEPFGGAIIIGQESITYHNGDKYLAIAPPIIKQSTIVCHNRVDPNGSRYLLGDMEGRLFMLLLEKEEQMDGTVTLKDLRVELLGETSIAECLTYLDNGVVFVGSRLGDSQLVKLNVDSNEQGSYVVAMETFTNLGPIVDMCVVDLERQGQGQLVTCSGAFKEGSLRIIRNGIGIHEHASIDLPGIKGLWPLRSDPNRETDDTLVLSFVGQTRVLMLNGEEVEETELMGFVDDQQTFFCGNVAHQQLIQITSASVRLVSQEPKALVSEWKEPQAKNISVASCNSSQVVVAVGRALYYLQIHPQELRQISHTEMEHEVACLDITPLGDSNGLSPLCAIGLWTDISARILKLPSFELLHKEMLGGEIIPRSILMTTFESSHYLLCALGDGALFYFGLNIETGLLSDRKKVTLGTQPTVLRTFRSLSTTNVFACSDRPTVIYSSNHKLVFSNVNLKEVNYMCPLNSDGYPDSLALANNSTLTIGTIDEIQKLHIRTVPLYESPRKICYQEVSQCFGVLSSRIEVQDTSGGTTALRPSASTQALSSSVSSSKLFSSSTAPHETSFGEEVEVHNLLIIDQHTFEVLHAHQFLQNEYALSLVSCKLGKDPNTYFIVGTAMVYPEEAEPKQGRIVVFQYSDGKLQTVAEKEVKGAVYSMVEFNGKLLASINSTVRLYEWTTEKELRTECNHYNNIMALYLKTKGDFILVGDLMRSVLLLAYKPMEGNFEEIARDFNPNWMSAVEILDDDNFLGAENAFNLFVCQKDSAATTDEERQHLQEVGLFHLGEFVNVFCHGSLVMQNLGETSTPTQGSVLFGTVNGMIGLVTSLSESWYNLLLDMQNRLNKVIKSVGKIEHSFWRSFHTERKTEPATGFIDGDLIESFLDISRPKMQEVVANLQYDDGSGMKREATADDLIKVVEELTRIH
assay-remarks: HiBiT protein tagging assay, in vitro IKZF1 degradation (HEK293)
Assay type: cell-based
assay-setup: HEK293, 18-24 hr incubation, normalized to DMSO control, read-out: IKZF1 Dmax (maximum degradation at the highest concentration tested)
quantity-measured: Dmax (%)
Give your result in % as a bare value.

# count of solved cases: 10
# compound, assayed-system, Dmax / %
data = [
    ("O=C1CCC(N2Cc3cc(CNC4CCC5(CCCC5)CC4)ccc3C2=O)C(=O)N1 (centres unmarked) [Example 84]", "IKZF1 (Homo sapiens, UniProt Q13422+Q96SW2)", 55),
    ("C[C@@H](CO)NCc1ccc2c(c1)CN(C1CCC(=O)NC1=O)C2=O (some centres unmarked) [Example 53]", "IKZF1 (Homo sapiens, UniProt Q13422+Q96SW2)", 24),
    ("N#C[C@H]1CC[C@H](NCc2ccc3c(c2)CN(C2CCC(=O)NC2=O)C3=O)CC1 (some centres unmarked) [Example 80]", "IKZF1 (Homo sapiens, UniProt Q13422+Q96SW2)", 57),
    ("O=C1CCC(N2Cc3cc(CNC4CCCC(Cn5cccn5)C4)ccc3C2=O)C(=O)N1 (centres unmarked) [Example 121]", "IKZF1 (Homo sapiens, UniProt Q13422+Q96SW2)", 93),
    ("O=C1CCC(N2Cc3cc(CN[C@H]4CCC[C@@H](OCc5ccccc5)C4)ccc3C2=O)C(=O)N1 (some centres unmarked) [Example 111]", "IKZF1 (Homo sapiens, UniProt Q13422+Q96SW2)", 61),
    ("O=C1CCC(N2Cc3cc(CNC4CCCC4)ccc3C2=O)C(=O)N1 (centres unmarked) [Example 8]", "IKZF1 (Homo sapiens, UniProt Q13422+Q96SW2)", 26),
    ("O=C1CCC(N2Cc3cc(CN[C@H]4CCC[C@@H](Cc5ccccc5)C4)ccc3C2=O)C(=O)N1 (some centres unmarked) [Example 116]", "IKZF1 (Homo sapiens, UniProt Q13422+Q96SW2)", 82),
    ("CC1(NCc2ccc3c(c2)CN(C2CCC(=O)NC2=O)C3=O)CCCCC1 (centres unmarked) [Example 113]", "IKZF1 (Homo sapiens, UniProt Q13422+Q96SW2)", 27),
    ("CC[C@H]1CCCC[C@H]1NCc1ccc2c(c1)CN(C1CCC(=O)NC1=O)C2=O (some centres unmarked) [Example 148]", "IKZF1 (Homo sapiens, UniProt Q13422+Q96SW2)", 38),
    ("C[C@H]1CC[C@@H](NCc2ccc3c(c2)CN(C2CCC(=O)NC2=O)C3=O)CN1Cc1ccccc1 (some centres unmarked) [Example 119]", "IKZF1 (Homo sapiens, UniProt Q13422+Q96SW2)", 94),
]

[ask] Which Dmax is listed for C[C@]1(NCc2ccc3c(c2)CN(C2CCC(=O)NC2=O)C3=O)CCCN(Cc2ccccc2)C1 (some centres unmarked) [Example 155] ?
[reply] 61

====

assayed-system: IKZF2 (Homo sapiens, UniProt Q96SW2+Q9UKS7)
Construct: expressed in transfected cells
Sequence (Q9UKS7 1-500 isoform Q9UKS7-2): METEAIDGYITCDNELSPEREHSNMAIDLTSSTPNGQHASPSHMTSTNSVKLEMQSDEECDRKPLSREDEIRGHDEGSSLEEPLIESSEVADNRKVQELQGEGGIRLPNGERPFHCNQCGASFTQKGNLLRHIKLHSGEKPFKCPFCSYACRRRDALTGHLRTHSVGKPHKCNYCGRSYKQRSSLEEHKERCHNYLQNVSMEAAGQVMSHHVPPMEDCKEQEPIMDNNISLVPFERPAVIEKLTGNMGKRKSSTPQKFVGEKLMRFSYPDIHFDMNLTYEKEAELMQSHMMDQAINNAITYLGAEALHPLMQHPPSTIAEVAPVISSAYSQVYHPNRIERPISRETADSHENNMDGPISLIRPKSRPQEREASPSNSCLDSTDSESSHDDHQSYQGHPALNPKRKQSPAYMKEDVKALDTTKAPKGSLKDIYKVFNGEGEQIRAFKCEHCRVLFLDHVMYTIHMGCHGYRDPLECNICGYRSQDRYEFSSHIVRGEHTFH
Sequence (Q96SW2 whole entry): as the sequence (Q96SW2 whole entry) above
Sequence (Q16531 whole entry partner): as the sequence (Q16531 whole entry partner) above
assay-remarks: HiBiT protein tagging assay, in vitro IKZF2 degradation (HEK293)
Assay type: cell-based
assay-setup: HEK293, HiBiT assay, HEK293, 18-24 hr incubation, normalized to DMSO control; read-out: IKZF2 Dmax (maximum degradation at the highest concentration tested)
Hi! Could you tag entries with Dmax below 80% as MET, and those at or above as NOT MET? Much appreciated.

Solved cases (3 shown):
# compound, assigned-label
measured = [
    ("C[C@H]1CCCC[C@@H]1NCc1ccc2c(c1)CN(C1CCC(=O)NC1=O)C2=O (stereo partly drawn) [Example 102]", "MET"),
    ("O=C1CCC(N2Cc3cc(CN[C@H]4CCC[C@@H](Oc5ccccc5)C4)ccc3C2=O)C(=O)N1 (stereo partly drawn) [Example 110]", "MET"),
    ("O=C1CCC(N2Cc3cc(CNC45CCC(CC4)C5)ccc3C2=O)C(=O)N1 (stereo not drawn) [Example 141]", "NOT MET"),
]

Kindly review the next compound as well.
[ask] Identify whether the compound NC(=O)C1CCCC(NCc2ccc3c(c2)CN(C2CCC(=O)NC2=O)C3=O)C1 (stereo not drawn) [Example 96] records Dmax below 80%.
[reply] MET

====

assayed-system: IKZF1 (Homo sapiens, UniProt Q13422+Q96SW2)
Construct: expressed in transfected cells
assay-remarks: HiBiT protein tagging assay, in vitro IKZF1 degradation (HEK293)
Type: cell-based
assay-setup: HEK293, 18-24 hr incubation, normalized to DMSO control, read-out: IKZF1 EC50
Protocol: In vitro degradation of IKZF1 and IKZF2 was measured using HiBiT protein tagging and detection technology (Promega). HiBiT technology (Promega) was used to develop the quantitative assays to measure the cellular IKZFs level by tagging an 11 amino acid HiBit peptides VSGWRLFKKIS (SEQ ID NO:1) to the protein of interest. Reporter plasmids were generated by fusing a linker sequence (GSSGGSSG; SEQ ID NO:2) followed by the HiBiT tag at the C terminus of IKZF1 and IKZF2. […]
// reported log10 of DC50 per item
Scale: decimal log of DC50, DC50 in nM.

Solved cases (5 shown):
# compound, log10 of DC50
records = [
    ("COC[C@@H]1CCCC[C@@H]1NCc1ccc2c(c1)CN(C1CCC(=O)NC1=O)C2=O (stereo partly shown) [Example 158]", 1.95),
    ("O=C1CCC(N2Cc3cc(CN[C@@H]4CCCN(Cc5cccc(Cl)c5)C4)ccc3C2=O)C(=O)N1 (stereo partly shown) [Example 99]", 0.30),
    ("O=C1CCC(N2Cc3cc(CNC4CCCC(C(F)(F)F)C4)ccc3C2=O)C(=O)N1 (stereo not shown) [Example 128]", 2.02),
    ("O=C1CCC(N2Cc3cc(CN[C@@H]4C[C@@H]5CC[C@H]4C5)ccc3C2=O)C(=O)N1 (stereo partly shown) [Example 71]", 2.23),
    ("O=C1CCC(N2Cc3cc(CNC4CCC5(CCOCC5)CC4)ccc3C2=O)C(=O)N1 (stereo not shown) [Example 88]", 2.47),
]

[ask] Find log10 of DC50 (IKZF1 (Homo sapiens, UniProt Q13422+Q96SW2)) for the entry O=C1CCC(N2Cc3cc(CN[C@H]4CC[C@H](c5ccccc5)CC4)ccc3C2=O)C(=O)N1 (stereo partly shown) [Example 32]
[reply] 1.73

[ask] What value of log10 of DC50 on IKZF1 (Homo sapiens, UniProt Q13422+Q96SW2) does C[C@@]1(NCc2ccc3c(c2)CN(C2CCC(=O)NC2=O)C3=O)CCCN(Cc2ccccc2)C1 (stereo partly shown) [Example 156] have?
[reply] 1.76

====

Measured DC50 values are reported for all entries that follow.
assayed-system: IKZF1 (Homo sapiens, UniProt Q13422+Q96SW2)
Construct: expressed in transfected cells
assay-remarks: HiBiT protein tagging assay, in vitro IKZF1 degradation (HEK293)
Assay type: cell-based
assay-setup: HEK293, 18-24 hr incubation, normalized to DMSO control, read-out: IKZF1 EC50
Lab book: enter the figure in µM, no units written.

# compound, assayed-system, meas-value
measured = [
    ("O=C1CCC(N2Cc3cc(CNC4CCCC(Cn5ncc6ccccc65)C4)ccc3C2=O)C(=O)N1 (stereo not shown)", "IKZF1 (Homo sapiens, UniProt Q13422+Q96SW2)", 0.022),
]

Shift focus to the following entry.
[ask] // returns reported DC50 for input O=C1CCC(N2Cc3cc(CN[C@@H]4CCCC[C@H]4CO)ccc3C2=O)C(=O)N1 (stereo partly shown)
[reply] 5.8

====

assayed-system: IKZF1 (Homo sapiens, UniProt Q13422+Q96SW2)
Construct: expressed in transfected cells
assay-remarks: HiBiT protein tagging assay, in vitro IKZF1 degradation (HEK293)
Format: cell-based
assay-setup: HEK293, 18-24 hr incubation, normalized to DMSO control, read-out: IKZF1 Dmax (maximum degradation at the highest concentration tested)
quantity-measured: Dmax (%)
# value in %; strip the unit string

[ask] Which Dmax value belongs to O=C1CCC(N2Cc3cc(CNC4CCN(c5cccnc5)CC4)ccc3C2=O)C(=O)N1 (stereo not shown) ?
[reply] 84

[ask] Dear colleague, I am looking for the recorded Dmax of the following molecule: O=C1CCC(N2Cc3cc(CNC4CCCC(Cn5ncc6ccccc65)C4)ccc3C2=O)C(=O)N1 (stereo not shown)
[reply] 97

[ask] Which Dmax value belongs to O=C1CCC(N2Cc3cc(CN[C@H]4CCC[C@@H]4NCc4ccccc4)ccc3C2=O)C(=O)N1 (stereo partly shown) ?
[reply] 66

[ask] Need Dmax, item O=C1CCC(N2Cc3cc(CN[C@H]4CC[C@H](C(F)(F)F)CC4)ccc3C2=O)C(=O)N1 (stereo partly shown)
[reply] 59

[ask] Dear colleague, I am looking for the recorded Dmax of the following molecule: O=C1CCC(N2Cc3cc(CN[C@@H]4CCCN(C(c5ccccc5)C(F)(F)F)C4)ccc3C2=O)C(=O)N1 (stereo partly shown)
[reply] 95

[ask] Any idea what its Dmax is? The molecule is O=C1CCC(N2Cc3cc(CNC4CCCC(c5ccccc5)C4)ccc3C2=O)C(=O)N1 (stereo not shown)
[reply] 30

[ask] Fill in: Dmax of O=C1CCC(N2Cc3cc(CNC4CCc5cccnc5C4)ccc3C2=O)C(=O)N1 (stereo not shown) is ___
[reply] 42

[ask] Give the measured Dmax of O=C1CCC(N2Cc3cc(CN[C@@H]4CCC[C@H](Cc5ccccc5)C4)ccc3C2=O)C(=O)N1 (stereo partly shown) .
[reply] 87
